Target: T1, Recombinant purified human PD-1 protein, residues Leu25-Thr168, with a C-terminal 6-His tag (human, UniProt Q15116)
T1 construct: programmed cell death protein 1 (PD-1), human, residues Leu25-Thr168; monomer; the results call it wild-type or full length PD-1 against the P35-Q167 fragment; also called PD-1-His; PD-1 His-tagged monomer; source: bought: R&D Systems; not shown: His6, C-terminal, kept
T1 sequence (Q15116 25-168): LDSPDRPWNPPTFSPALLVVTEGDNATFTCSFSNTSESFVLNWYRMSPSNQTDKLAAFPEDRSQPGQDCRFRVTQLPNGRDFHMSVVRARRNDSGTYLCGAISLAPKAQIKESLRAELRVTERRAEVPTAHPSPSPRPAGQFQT
Experiment: SPR; Carterra LSA, CMD-P (flat) chip; mAbs captured on goat anti-human IgG Fc in a 384-spot array; PD-1-His analyte 0.5-1000 nM, 5 min association, 20 min dissociation; HBS-ET + 0.5 mg/ml BSA; 1:1 Langmuir fit; mean of spots; apparent
Details: both partners purified
REPORTED_METRIC: kon (M⁻¹ s⁻¹)
State just the number; it will be interpreted in M⁻¹ s⁻¹.

Notebook: mAb17 (analog of camrelizumab) (antibody, V domains shown, VH; IgG4 heavy-chain constant region with stabilizing 226CPPC hinge; VL; IgG4 analog; source: HEK293 suspension cells, cotransfected, purified (Protein A)) VH: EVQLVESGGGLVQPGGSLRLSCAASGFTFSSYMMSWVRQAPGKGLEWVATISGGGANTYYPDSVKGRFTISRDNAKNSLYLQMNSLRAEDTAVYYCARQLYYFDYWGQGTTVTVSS VL: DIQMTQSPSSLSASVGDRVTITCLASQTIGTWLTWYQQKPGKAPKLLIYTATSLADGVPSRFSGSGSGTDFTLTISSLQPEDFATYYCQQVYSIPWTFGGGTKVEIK , kon read as 180000

Notebook: mAb03 (analog of tislelizumab) (antibody, V domains shown, VH; IgG4 heavy-chain constant region with stabilizing 226CPPC hinge; VL; IgG4 analog; source: HEK293 suspension cells, cotransfected, purified (Protein A)) VH: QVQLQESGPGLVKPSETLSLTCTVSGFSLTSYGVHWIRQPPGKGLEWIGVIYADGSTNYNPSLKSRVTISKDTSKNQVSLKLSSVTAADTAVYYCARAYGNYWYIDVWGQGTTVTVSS VL: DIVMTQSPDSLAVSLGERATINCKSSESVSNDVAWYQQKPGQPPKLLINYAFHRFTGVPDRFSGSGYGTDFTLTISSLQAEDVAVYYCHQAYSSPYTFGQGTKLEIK , kon read as 430000

Notebook: mAb19 (analog of sasanlimab) (antibody, V domains shown, VH; IgG4 heavy-chain constant region with stabilizing 226CPPC hinge; VL; IgG4 analog; source: HEK293 suspension cells, cotransfected, purified (Protein A)) VH: QVQLVQSGAEVKKPGASVKVSCKASGYTFTSYWINWVRQAPGQGLEWMGNIYPGSSLTNYNEKFKNRVTMTRDTSTSTVYMELSSLRSEDTAVYYCARLSTGTFAYWGQGTLVTVSS VL: DIVMTQSPDSLAVSLGERATINCKSSQSLWDSGNQKNFLTWYQQKPGQPPKLLIYWTSYRESGVPDRFSGSGSGTDFTLTISSLQAEDVAVYYCQNDYFYPHTFGGGTKVEIK , kon read as 250000

Notebook: mAb23 (analog of cemiplimab) (antibody, V domains shown, VH; IgG4 heavy-chain constant region with stabilizing 226CPPC hinge; VL; IgG4 analog; source: HEK293 suspension cells, cotransfected, purified (Protein A)) VH: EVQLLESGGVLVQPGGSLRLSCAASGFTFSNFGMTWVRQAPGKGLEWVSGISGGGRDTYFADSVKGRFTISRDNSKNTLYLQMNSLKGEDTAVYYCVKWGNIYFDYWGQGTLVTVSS VL: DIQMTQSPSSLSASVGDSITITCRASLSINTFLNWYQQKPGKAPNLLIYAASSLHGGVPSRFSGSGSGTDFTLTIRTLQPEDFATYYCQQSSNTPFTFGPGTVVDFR , kon read as 190000
